Measurement target: human Nav 1.7 channels stably expressed in HEK 293 cells (Homo sapiens)
Sequence (Q15858 whole entry): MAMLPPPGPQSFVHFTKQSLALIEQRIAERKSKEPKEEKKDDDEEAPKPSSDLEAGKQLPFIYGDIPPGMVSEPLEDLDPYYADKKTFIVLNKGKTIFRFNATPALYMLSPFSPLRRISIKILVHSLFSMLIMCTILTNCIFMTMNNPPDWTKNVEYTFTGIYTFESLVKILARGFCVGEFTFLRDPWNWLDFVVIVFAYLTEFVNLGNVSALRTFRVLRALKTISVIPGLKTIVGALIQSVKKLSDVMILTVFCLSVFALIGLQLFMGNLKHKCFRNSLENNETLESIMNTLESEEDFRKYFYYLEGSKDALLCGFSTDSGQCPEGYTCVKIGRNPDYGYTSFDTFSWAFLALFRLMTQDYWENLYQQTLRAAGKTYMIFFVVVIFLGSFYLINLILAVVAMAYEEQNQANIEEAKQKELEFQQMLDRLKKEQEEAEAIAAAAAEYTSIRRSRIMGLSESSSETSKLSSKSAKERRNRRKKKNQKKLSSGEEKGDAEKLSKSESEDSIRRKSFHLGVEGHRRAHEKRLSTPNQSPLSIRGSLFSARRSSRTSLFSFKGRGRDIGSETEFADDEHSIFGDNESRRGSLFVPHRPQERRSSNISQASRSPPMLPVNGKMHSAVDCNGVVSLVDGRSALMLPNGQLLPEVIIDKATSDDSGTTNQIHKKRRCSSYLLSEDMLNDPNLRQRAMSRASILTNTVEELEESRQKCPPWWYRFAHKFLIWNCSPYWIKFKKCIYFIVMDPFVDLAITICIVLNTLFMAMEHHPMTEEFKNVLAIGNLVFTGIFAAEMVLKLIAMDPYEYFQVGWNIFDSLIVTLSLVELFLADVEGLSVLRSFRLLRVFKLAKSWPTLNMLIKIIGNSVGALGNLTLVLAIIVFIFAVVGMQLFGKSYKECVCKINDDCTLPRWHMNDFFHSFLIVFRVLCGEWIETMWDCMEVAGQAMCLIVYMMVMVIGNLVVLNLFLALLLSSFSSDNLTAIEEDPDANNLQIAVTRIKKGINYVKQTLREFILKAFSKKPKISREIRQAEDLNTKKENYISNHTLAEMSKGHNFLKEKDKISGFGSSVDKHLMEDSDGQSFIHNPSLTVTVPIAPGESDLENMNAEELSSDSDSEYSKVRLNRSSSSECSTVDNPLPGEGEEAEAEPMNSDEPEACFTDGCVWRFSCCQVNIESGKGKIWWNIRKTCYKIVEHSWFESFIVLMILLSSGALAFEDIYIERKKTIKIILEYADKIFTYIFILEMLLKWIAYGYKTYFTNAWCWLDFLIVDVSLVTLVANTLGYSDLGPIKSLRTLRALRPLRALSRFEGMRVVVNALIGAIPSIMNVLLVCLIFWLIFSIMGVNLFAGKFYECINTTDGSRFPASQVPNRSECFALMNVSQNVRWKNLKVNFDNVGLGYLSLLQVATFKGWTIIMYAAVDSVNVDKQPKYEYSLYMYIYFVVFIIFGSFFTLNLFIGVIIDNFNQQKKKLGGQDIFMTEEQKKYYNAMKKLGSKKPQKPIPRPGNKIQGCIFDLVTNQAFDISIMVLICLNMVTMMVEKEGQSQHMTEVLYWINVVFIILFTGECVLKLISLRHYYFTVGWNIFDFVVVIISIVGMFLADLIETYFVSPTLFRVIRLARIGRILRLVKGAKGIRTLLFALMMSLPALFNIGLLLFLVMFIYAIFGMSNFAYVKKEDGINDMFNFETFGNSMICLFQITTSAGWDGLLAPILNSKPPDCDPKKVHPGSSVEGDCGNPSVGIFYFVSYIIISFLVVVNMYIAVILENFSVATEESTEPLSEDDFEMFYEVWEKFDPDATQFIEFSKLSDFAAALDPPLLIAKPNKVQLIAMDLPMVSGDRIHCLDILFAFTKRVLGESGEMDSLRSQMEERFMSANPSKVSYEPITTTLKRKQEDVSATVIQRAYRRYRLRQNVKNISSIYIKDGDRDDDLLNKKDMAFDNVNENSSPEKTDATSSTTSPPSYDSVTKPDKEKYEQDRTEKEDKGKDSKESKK
Assay info: IonWorks Quattro automated patch-clamp, inactivated state block of Nav 1.7
Protocol conditions: double-pulse protocol, HEK 293 cells held at -100 mV, read-out: potency for the Nav 1.7 sodium ion channel (IC50, IonWorks)
Catalogue of IC50 readings, one per entry.

{"Compound": "O=S(=O)(Nc1ncc(F)s1)c1ccc(NCCCCNC[C@@H]2CCCN2)c(Cl)c1", "IC50 / nM": 16}
{"Compound": "O=S(=O)(Nc1nccs1)c1cc(Cl)c(NCCCCN[C@@H]2[C@H]3CC[C@@H]2NC3)cc1F", "IC50 / nM": 21}
{"Compound": "O=S(=O)(Nc1nccs1)c1cc(Cl)c(NCCCCNC[C@H]2NCC[C@@H]2c2ccccc2)cc1F", "IC50 / nM": 21}
{"Compound": "O=S(=O)(Nc1nccs1)c1cc(Cl)c(NCC(F)(F)CCNC[C@@H]2CCCN2)cc1F", "IC50 / nM": 49}
{"Compound": "C[C@@H](N)CNCCCCCNc1cc(F)c(S(=O)(=O)Nc2nccs2)cc1Cl", "IC50 / nM": 79}
{"Compound": "O=S(=O)(Nc1nccs1)c1cc(Cl)c(NCCCCN2CCC3(CCNC3)C2)cc1F (stereo not shown)", "IC50 / nM": 44}
{"Compound": "O=S(=O)(Nc1nccs1)c1cc(Cl)c(NCC(F)(F)CCNC[C@H]2CCCN2)cc1F", "IC50 / nM": 49}
{"Compound": "NCC1CCCN(CCCCNc2cc(F)c(S(=O)(=O)Nc3nccs3)cc2Cl)C1 (stereo not shown)", "IC50 / nM": 30}
{"Compound": "O=S(=O)(Nc1nccs1)c1cc(Cl)c(NCCCCNC[C@H]2CC(F)(F)CN2)cc1F", "IC50 / nM": 66}
{"Compound": "N[C@H]1[C@@H]2CC[C@H]1N(CCCCNc1cc(F)c(S(=O)(=O)Nc3nccs3)cc1Cl)C2", "IC50 / nM": 56}
{"Compound": "CO[C@H]1CN[C@H](CNCCCCNc2cc(F)c(S(=O)(=O)Nc3nccs3)cc2Cl)C1", "IC50 / nM": 63}
{"Compound": "N[C@H]1CCCN(CCCCNc2cc(F)c(S(=O)(=O)Nc3nccs3)cc2Cl)C1", "IC50 / nM": 97}
{"Compound": "O=S(=O)(Nc1ncc(F)s1)c1cc(Cl)c(NCCCCN2C[C@H]3CCCN[C@H]3C2)cc1F", "IC50 / nM": 14}
{"Compound": "CNCCNCCCCNc1cc(F)c(S(=O)(=O)Nc2ncns2)cc1F", "IC50 / nM": 74}
{"Compound": "O=S(=O)(Nc1ncc(F)s1)c1cc(Cl)c(NCCCCNCCNC2C3CC4CC(C3)CC2C4)cc1F (stereo not shown)", "IC50 / nM": 1.9}
{"Compound": "NCC1CCN1CCCCNc1cc(F)c(S(=O)(=O)Nc2nccs2)cc1Cl (single isomer, unassigned) [Ex 16-53]", "IC50 / nM": 42}
{"Compound": "O=S(=O)(Nc1nccs1)c1cc(Cl)c(NCCCCNCC2CCC(c3ccccc3)CN2)cc1F (stereo not shown)", "IC50 / nM": 14}
{"Compound": "O=S(=O)(Nc1nccs1)c1cc(Cl)c(NCCCCN2CC3CCCNC3C2)cc1F (stereo not shown)", "IC50 / nM": 16}
{"Compound": "O=S(=O)(Nc1cccc(F)n1)c1cc(Cl)c(NCCCCCNC[C@@H]2CCCN2)cc1F", "IC50 / nM": 29}
{"Compound": "N#C[C@H]1CN[C@H](CNCCCCNc2cc(F)c(S(=O)(=O)Nc3nccs3)cc2Cl)C1", "IC50 / nM": 87}
{"Compound": "Cc1cc(S(=O)(=O)Nc2ncc(F)s2)c(F)cc1NCCCCN[C@@H]1CCNC1", "IC50 / nM": 11}
{"Compound": "O=S(=O)(Nc1nccs1)c1cc(Cl)c(NCCCCCNCC2CCCCN2)cc1F (stereo not shown)", "IC50 / nM": 19}
{"Compound": "O=S(=O)(Nc1nccs1)c1cc(Cl)c(NCCCCN2C[C@H]3CNCC[C@H]3C2)cc1F", "IC50 / nM": 43}
{"Compound": "NC[C@@H]1CCN1CCCCNc1cc(F)c(S(=O)(=O)Nc2ncc(F)s2)cc1Cl", "IC50 / nM": 15}
{"Compound": "N[C@H]1CCN(CCCCNc2cc(F)c(S(=O)(=O)Nc3nccs3)cc2Cl)C1", "IC50 / nM": 19}
{"Compound": "NC1CCCN(CCCCNc2cc(F)c(S(=O)(=O)Nc3nccs3)cc2Cl)CC1 (stereo not shown)", "IC50 / nM": 31}
{"Compound": "NC1CN(CCCCNc2cc(F)c(S(=O)(=O)Nc3ncns3)cc2Cl)C1", "IC50 / nM": 30}
{"Compound": "O=S(=O)(Nc1nccs1)c1cc(Cl)c(NCCCCNCC2Cc3ccccc3CN2)cc1F (stereo not shown) [Ex 1-9]", "IC50 / nM": 13}
{"Compound": "O=S(=O)(Nc1nccs1)c1cc(Cl)c(NCCCCN2CCCC23CCNC3)cc1F (stereo not shown)", "IC50 / nM": 66}
{"Compound": "N#Cc1cc(S(=O)(=O)Nc2ncns2)c(F)cc1NCCCCN[C@@H]1CCNC1", "IC50 / nM": 16}
{"Compound": "CN[C@@H]1CCN(CCCCNc2cc(F)c(S(=O)(=O)Nc3ncns3)cc2Cl)C1", "IC50 / nM": 14}
{"Compound": "NC[C@H]1CCN1CCCCNc1cc(F)c(S(=O)(=O)Nc2ncc(F)s2)cc1Cl", "IC50 / nM": 19}
{"Compound": "NCc1ccccc1CNCCCCNc1cc(F)c(S(=O)(=O)Nc2nccs2)cc1Cl", "IC50 / nM": 21}
{"Compound": "O=S(=O)(Nc1nccs1)c1cc(Cl)c(NCCCCNCC2Cc3ccccc3CN2)cc1F (single isomer, unassigned) [Ex 1-18]", "IC50 / nM": 7.9}

* * *

Measurement target: human Nav 1.5 channels stably expressed in HEK 293 cells (Homo sapiens)
Construct: expressed in transfected cells; host or cells: HEK 293
Sequence (Q14524 whole entry): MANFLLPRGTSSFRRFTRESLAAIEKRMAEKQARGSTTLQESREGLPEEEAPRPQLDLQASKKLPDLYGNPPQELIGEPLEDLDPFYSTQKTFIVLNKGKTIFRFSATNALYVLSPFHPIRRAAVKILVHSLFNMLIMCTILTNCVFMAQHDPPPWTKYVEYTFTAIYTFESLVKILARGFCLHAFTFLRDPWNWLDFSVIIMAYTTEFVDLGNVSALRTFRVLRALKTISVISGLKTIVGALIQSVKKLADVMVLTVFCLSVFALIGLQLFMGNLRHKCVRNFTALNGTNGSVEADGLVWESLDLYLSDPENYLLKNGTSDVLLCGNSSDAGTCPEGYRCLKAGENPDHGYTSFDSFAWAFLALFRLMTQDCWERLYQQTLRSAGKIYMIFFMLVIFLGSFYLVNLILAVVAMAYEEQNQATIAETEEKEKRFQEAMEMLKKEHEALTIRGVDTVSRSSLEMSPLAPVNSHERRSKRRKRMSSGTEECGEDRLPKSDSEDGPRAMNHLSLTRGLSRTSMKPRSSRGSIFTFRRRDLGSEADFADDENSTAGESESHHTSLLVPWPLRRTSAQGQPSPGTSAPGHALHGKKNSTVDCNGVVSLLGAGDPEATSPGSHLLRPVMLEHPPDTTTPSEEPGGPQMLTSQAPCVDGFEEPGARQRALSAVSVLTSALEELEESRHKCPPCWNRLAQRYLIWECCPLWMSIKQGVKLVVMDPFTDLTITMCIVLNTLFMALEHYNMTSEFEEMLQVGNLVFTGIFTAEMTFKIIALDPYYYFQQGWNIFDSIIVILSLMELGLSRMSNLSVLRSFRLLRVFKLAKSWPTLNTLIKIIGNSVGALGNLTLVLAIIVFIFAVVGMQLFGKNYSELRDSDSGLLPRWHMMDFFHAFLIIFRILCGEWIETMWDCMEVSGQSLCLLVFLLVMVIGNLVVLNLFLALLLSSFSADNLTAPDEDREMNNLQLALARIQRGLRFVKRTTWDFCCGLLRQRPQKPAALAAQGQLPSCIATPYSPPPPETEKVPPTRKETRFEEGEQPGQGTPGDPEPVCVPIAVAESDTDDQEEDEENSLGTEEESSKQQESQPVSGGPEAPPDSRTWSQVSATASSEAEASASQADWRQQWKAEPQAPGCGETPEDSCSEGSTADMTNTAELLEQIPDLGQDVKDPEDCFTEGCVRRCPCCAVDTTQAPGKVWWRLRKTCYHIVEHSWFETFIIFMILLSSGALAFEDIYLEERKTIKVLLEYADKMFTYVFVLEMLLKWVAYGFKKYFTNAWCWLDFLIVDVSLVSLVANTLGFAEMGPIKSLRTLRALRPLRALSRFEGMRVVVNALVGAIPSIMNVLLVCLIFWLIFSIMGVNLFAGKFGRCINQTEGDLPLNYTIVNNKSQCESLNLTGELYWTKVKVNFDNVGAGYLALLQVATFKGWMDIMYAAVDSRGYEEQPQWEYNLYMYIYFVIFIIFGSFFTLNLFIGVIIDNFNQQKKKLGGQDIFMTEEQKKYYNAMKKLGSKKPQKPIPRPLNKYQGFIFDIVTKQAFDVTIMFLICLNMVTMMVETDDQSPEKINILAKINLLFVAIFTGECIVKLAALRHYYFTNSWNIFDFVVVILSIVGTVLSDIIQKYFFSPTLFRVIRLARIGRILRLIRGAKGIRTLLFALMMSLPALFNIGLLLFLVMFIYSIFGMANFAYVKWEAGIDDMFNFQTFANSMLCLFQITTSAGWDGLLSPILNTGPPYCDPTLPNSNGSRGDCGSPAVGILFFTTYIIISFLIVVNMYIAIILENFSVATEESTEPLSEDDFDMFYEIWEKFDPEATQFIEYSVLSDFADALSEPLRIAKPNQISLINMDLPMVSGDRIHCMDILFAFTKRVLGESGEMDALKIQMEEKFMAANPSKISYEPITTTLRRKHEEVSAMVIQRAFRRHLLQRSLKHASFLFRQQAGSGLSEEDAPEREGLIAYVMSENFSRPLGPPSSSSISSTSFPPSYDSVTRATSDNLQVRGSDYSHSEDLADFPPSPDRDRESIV
Assay info: IonWorks Quattro automated patch-clamp, inactivated state block of Nav 1.5 (reported as ratio to Nav 1.7 potency)
Type: cell-based
Protocol conditions: selectivity for Nav 1.7 over Nav 1.5, both by IonWorks
Catalogue of ratio of Nav 1.7 : Nav 1.5 potency (IonWorks) readings, one per entry.
Measured endpoint: ratio of Nav 1.7 : Nav 1.5 potency (IonWorks)

{"Molecule": "O=S(=O)(Nc1ncc(F)s1)c1cc(Cl)c(NCCCCNCCNC2C3CC4CC(C3)CC2C4)cc1F (stereo not drawn)", "Measurement target": "human Nav 1.5 channels stably expressed in HEK 293 cells (Homo sapiens)", "Value reported": "> 17400"}
{"Molecule": "CO[C@H]1CN[C@H](CNCCCCNc2cc(F)c(S(=O)(=O)Nc3nccs3)cc2Cl)C1", "Measurement target": "human Nav 1.5 channels stably expressed in HEK 293 cells (Homo sapiens)", "Value reported": "> 520"}
{"Molecule": "O=S(=O)(Nc1nccs1)c1cc(Cl)c(NCCCCN[C@@H]2[C@H]3CC[C@@H]2NC3)cc1F", "Measurement target": "human Nav 1.5 channels stably expressed in HEK 293 cells (Homo sapiens)", "Value reported": "> 1590"}
{"Molecule": "N[C@@H]1CCN(CCCCNc2cc(F)c(S(=O)(=O)Nc3nccs3)cc2Cl)C1", "Measurement target": "human Nav 1.5 channels stably expressed in HEK 293 cells (Homo sapiens)", "Value reported": "> 1830"}
{"Molecule": "O=S(=O)(Nc1nccs1)c1cc(Cl)c(NCCCCN[C@H]2[C@@H]3CC[C@H]2NC3)cc1F", "Measurement target": "human Nav 1.5 channels stably expressed in HEK 293 cells (Homo sapiens)", "Value reported": "> 550"}
{"Molecule": "O=S(=O)(Nc1nccs1)c1cc(Cl)c(NCCCCN2CCCNCC2)cc1F", "Measurement target": "human Nav 1.5 channels stably expressed in HEK 293 cells (Homo sapiens)", "Value reported": "> 418"}
{"Molecule": "NCC1CN(CCCCNc2cc(F)c(S(=O)(=O)Nc3nccs3)cc2Cl)C1", "Measurement target": "human Nav 1.5 channels stably expressed in HEK 293 cells (Homo sapiens)", "Value reported": "> 2200"}
{"Molecule": "O=S(=O)(Nc1nccs1)c1cc(Cl)c(NCCCC(Cc2ccccc2)NC[C@@H]2CCCN2)cc1F (stereo partly drawn)", "Measurement target": "human Nav 1.5 channels stably expressed in HEK 293 cells (Homo sapiens)", "Value reported": 1530}
{"Molecule": "O=S(=O)(Nc1nccs1)c1ccc(NCCCCNC[C@@H]2CCCN2)c(Cl)c1", "Measurement target": "human Nav 1.5 channels stably expressed in HEK 293 cells (Homo sapiens)", "Value reported": "> 1200"}
{"Molecule": "O=S(=O)(Nc1nccs1)c1cc(Cl)c(NC[C@H]2C[C@@H]3CN(C[C@@H]4CCCN4)C[C@@H]3C2)cc1F", "Measurement target": "human Nav 1.5 channels stably expressed in HEK 293 cells (Homo sapiens)", "Value reported": "> 850"}
{"Molecule": "O=S(=O)(Nc1nccs1)c1cc(Cl)c(NCCCCN2C[C@H]3CNC[C@H]3C2)cc1F", "Measurement target": "human Nav 1.5 channels stably expressed in HEK 293 cells (Homo sapiens)", "Value reported": "> 1270"}
{"Molecule": "O=S(=O)(Nc1nccs1)c1cc(Cl)c(NCCCCN2CCC3(CCCN3)CC2)cc1F", "Measurement target": "human Nav 1.5 channels stably expressed in HEK 293 cells (Homo sapiens)", "Value reported": "> 870"}
{"Molecule": "NCC1(c2ccccc2)CCN(CCCCNc2cc(F)c(S(=O)(=O)Nc3nccs3)cc2Cl)C1 (stereo not drawn)", "Measurement target": "human Nav 1.5 channels stably expressed in HEK 293 cells (Homo sapiens)", "Value reported": "> 717"}
{"Molecule": "O=S(=O)(Nc1nccs1)c1cc(Cl)c(NCCCCNC[C@@H]2C[C@H](Oc3ccccc3)CN2)cc1F", "Measurement target": "human Nav 1.5 channels stably expressed in HEK 293 cells (Homo sapiens)", "Value reported": 425}
{"Molecule": "O=S(=O)(Nc1nccs1)c1cc(Cl)c(NCCCCNCCNCc2ccccc2)cc1F", "Measurement target": "human Nav 1.5 channels stably expressed in HEK 293 cells (Homo sapiens)", "Value reported": "> 4700"}
{"Molecule": "O=S(=O)(Nc1nccs1)c1cc(Cl)c(NCC(CCNC[C@@H]2CCCN2)c2ccccc2)cc1F (stereo partly drawn)", "Measurement target": "human Nav 1.5 channels stably expressed in HEK 293 cells (Homo sapiens)", "Value reported": "> 423"}
{"Molecule": "O=S(=O)(Nc1nccs1)c1cc(Cl)c(NCCCCNC[C@H]2C[C@@H](c3ccccc3)CN2)cc1F", "Measurement target": "human Nav 1.5 channels stably expressed in HEK 293 cells (Homo sapiens)", "Value reported": "> 2360"}
{"Molecule": "O=S(=O)(Nc1nccs1)c1cc(Cl)c(NCCCCNC2C[C@@H]3C[C@H]2CN3)cc1F (stereo partly drawn)", "Measurement target": "human Nav 1.5 channels stably expressed in HEK 293 cells (Homo sapiens)", "Value reported": "> 1940"}
